Assay: Toxicity liver stage against HepG2, at 10uM
Type: cell-based
Set-up: test concentration 10 uM, cell line HepG2-A16-CD81EGFP
Settings: human, HepG2-A16-CD81EGFP cells; read-out: INHIBITION
MEASUREMENT_TYPE: cytotoxicity at 10 µM (%)
Report only the number, with the unit % understood.

# example entries with known answers
COCC1CN(C(=O)Cc2ccccn2)Cc2ncn(C)c21 (centres undefined) | 1.73
CCC1CCCCCN1C(=O)c1ccc(N2CCC(O)CC2)cc1 (centres undefined) | -9.77
CC[C@@H]1N(Cc2ccc(OC)cc2)CCC[C@]12CCC(=O)N2CCOC | 14
COCC1CC2(CCN(Cc3ccncc3)CC2)CN1C(C)C (centres undefined) | 1.73
Cc1ccccc1OCCSc1nnc(CC2CCS(=O)(=O)C2)n1C (centres undefined) | 1.27

Query (compound): CC(C)C(=O)N1CCCC([C@@H]2C[C@H](C(F)F)n3ncnc3N2)C1 (some centres undefined) ; field requested: cytotoxicity at 10 µM
-3.41

Query (compound): CC(C)(C)C(CCO)NC(=O)Nc1ccccc1 (centres undefined) ; field requested: cytotoxicity at 10 µM
-3.3

###

Experiment: Toxicity liver stage against HepG2, at 10uM
Type: cell-based
Parameters: test concentration 10 uM, cell line HepG2-A16-CD81EGFP
Conditions: human, HepG2-A16-CD81EGFP cells; read-out: INHIBITION
MEASUREMENT_TYPE: cytotoxicity at 10 µM (%)
Report only the number, with the unit % understood.

# example entries with known answers
O=C(Cn1cncn1)NCC1(O)CCCc2ccccc21 (stereo unspecified) | -54.8
COc1cccc(CC(C)NC(=O)NC(C)C)c1 (stereo unspecified) | 4.72
CCC[C@@H]1CN(Cc2nnc(-c3cccc(F)c3)o2)C[C@H]1NC(C)=O | 0.833
CC(=O)N1CCC2(CC1)CN(C(C)=O)CC21CCNC1=O (stereo unspecified) | -2.69
O=C(Cc1ccccc1F)N1CCN(Cc2noc(C3CC3)n2)CC1 | -2.21

Continue with the compound presented below.
Query (compound): CC1CN(S(=O)(=O)c2ccc(F)cc2)c2cccnc2O1 (stereo unspecified) ; field requested: cytotoxicity at 10 µM
-0.781

###

Assay: Toxicity liver stage against HepG2, at 10uM
Format: cell-based
Parameters: test concentration 10 uM, cell line HepG2-A16-CD81EGFP
Conditions: human, HepG2-A16-CD81EGFP cells; read-out: INHIBITION
MEASUREMENT_TYPE: cytotoxicity at 10 µM (%)
Report only the number, with the unit % understood.

Cc1cccc(NC(=O)C(C)Nc2cccc(CN3CCOC3=O)c2)c1 (stereo unspecified) | 6.92
COC(=O)N1CCCC(C(=O)NCc2cc3cccc(OC)c3o2)C1 (stereo unspecified) | -7.72
O=C(c1cccnc1)N1CCN(c2ccnc3ccsc23)CC1 | 5.77
CN1CCOC(CNCc2ccccc2OCc2ccccn2)C1 (stereo unspecified) | -9.39
Cc1cc(CC2COc3ccccc3C2)cnc1N (stereo unspecified) | 0.873

Query (compound): Cc1cc(CN2C[C@@H]3CN(C(=O)c4ccsc4)CCO[C@@H]3C2)no1 ; field requested: cytotoxicity at 10 µM
-131

###

cytotoxicity at 10 µM values by entry
Assay: Toxicity liver stage against HepG2, at 10uM
Format: cell-based
Set-up: test concentration 10 uM, cell line HepG2-A16-CD81EGFP
Conditions: human, HepG2-A16-CD81EGFP cells; read-out: INHIBITION
Write your answer as a measured quantity: the number, then the unit.

CCc1nn(C)c(CC)c1CNC(=O)Nc1cccc([S+](C)[O-])c1 (stereo unspecified) | -1.01%
COc1cccc(CNC(=O)CN2CCCCC2Cn2cccn2)c1 (stereo unspecified) | 2.77%
CCc1nc(CCNC(=O)NC2CC(=O)N(C(C)(C)C)C2)cs1 (stereo unspecified) | -1.51%

Query (molecule): CCCN1CCCn2nc(CNC(=O)CCOC)cc2C1 ; field requested: cytotoxicity at 10 µM
-12.2%

Query (molecule): COCCOc1ncccc1-c1noc([C@@H]2CCCN2C2CCC2)n1 ; field requested: cytotoxicity at 10 µM
-7.68%

Query (molecule): Cc1ccccc1CNC(=O)Cn1nc(-c2ccc(F)cc2)oc1=O ; field requested: cytotoxicity at 10 µM
-7.63%

The measurements presented in this section are drawn from ChEMBL document CHEMBL4513216.
